# TGT: HLA-B*5101 (human)
# ASSAY_NAME: competition with 125I-labeled standard peptide for purified HLA, gel filtration
PROPERTY_LABEL: binding affinity ratio (IC50 of standard peptide / IC50 of test peptide)
Number only, please.

Dear colleague, I am looking for the recorded binding affinity ratio (IC50 of standard peptide / IC50 of test peptide) of the following binder: DPQERPRKL (modifications not checked) [HPV16 E6 11 …]
0.0001

What do we get for WPYLHNRLV (modifications not checked) ?
0.11

What do we get for EPPKLRSTAA (modifications not checked) [HPV16 E1 308 …] ?
0.0002

What do we get for WPYLHNRLVV (modifications not checked) ?
0.074
